target: SARS-CoV-2 RBD (RBD-2) (SARS-CoV-2); assay: SPR, Fc-captured IgG
MEASURED PROPERTY: koff (s⁻¹)
Numbers only, in s⁻¹.

Here's what some known entries look like.
L12.cP08A09 (antibody, V domains shown, human IgG1) VH: QVQLVQSGAEVKKPGASVKVSCKASGYIYSGYYMHWVRQAPGQGLEWMGWISPDSGGTNYAQRFQGRVTMTRDTSTTTAYMELSRLRSDDTAVYYCARGPRYSGTYFDYWGQGTLVTVSS VL: QSALTQPASVSGSPGQSITISCTGTSSDVGGYNYVSWYQQHPDKAPKLMIYDVSNRPSGVSNRFSGSKSGNTASLTISGLQAEDEADYYCSSYTSGSTQVFGGGTKLTVL	0.0707
L12.cP08D07 (antibody, V domains shown, human IgG1) VH: QVQLQESGPGLVKPSETLSLTCTVSGGSISSSSYYWGWIRQPPGKGLEWIGSIYYSGSTYYNPSLKSRVTISVDTSKNQFSLKLSSVTAADTAVYYCARQGDCSTTSCAYDYWGQGTLVTVSS VL: SYELTQPPSVSVSPGQTARITCSGDALPKQYAYWYQQKPGQAPVLVIYKDSERPSGIPERFSGSSSGTTATLTISGVQAEDEADYYCQSADSSGTYLVVFGGGTKLAVL	0.017

Input line: Find the recorded koff belonging to L12.cP09C07 (antibody, V domains shown, human IgG1) VH: QVQLVQSGAEVKKPGASVKVSCKASGYIYSGYFMHWVRQAPGQGLEWMGWISPDSGGANYAQTFQGRVTMTRDTSTTTAHMELSRLRSDDTAVYYCARGPRYSGTHFDYWGQGTLVTVSS VL: QSALTQPASVSGSPGQSLTISCTGTSSDVGGYNYVSWYQQHPDKAPKLMIYDVNNRPSGVSNRFSGSKSGSTASLTISGLQAEDEADYYCSSYAGSSTQVFGGGTKLIVL and report it.
Output line: 0.0691
